Tested on: A549 NSCLC
Assay: NCI tumour cell line growth inhibition, 48 h
metric: TGI

Cc1cc(S(N)(=O)=O)c(S/C(=N\Nc2ccc([N+](=O)[O-])cc2)c2ccc3ccccc3c2)cc1Cl :: > 100 µM
O=C(Nc1cccc(-n2cc(-c3ccncc3)c(-c3ccc(O)c(Cl)c3)n2)c1)c1ccc(Cl)c(Cl)c1 :: > 100 µM
C[C@]12CCc3sc(-c4cccc(F)c4)nc3C1=CC[C@@H]1[C@@H]2CC[C@]2(C)C(=O)CC[C@@H]12 :: 31.5 µM
O[C@H]1[C@H](O)[C@@H](Cn2nnc(-c3ccccc3)c2-c2ccccc2)OCO[C@@H]1Cn1nnc(-c2ccccc2)c1-c1ccccc1 :: 13.5 µM
CC(=O)c1ccc2c(c1)N(CCCN(C)C)c1ccccc1S2 :: 34.2 µM
COc1cc(C2C3=C(COC3=O)Nc3cc4c(cc32)OCO4)cc2c1OCO2 (centres undefined) :: > 100 µM
Cc1nc2ccccc2c(=O)n1/N=C/c1ccc(N(C)C)cc1 :: > 100 µM
Cc1ccc2c(CC(=O)O)cc(=O)oc2c1 :: > 100 µM
Cn1c(=O)c2nc(NCCO)cnc2n(C)c1=O :: > 100 µM
